# subject.of.test: recombinant Human Phosphodiesterase B2 (PDE4B2) (Homo sapiens, UniProt Q07343)
# Sequence (Q07343 1-564 isoform Q07343-2): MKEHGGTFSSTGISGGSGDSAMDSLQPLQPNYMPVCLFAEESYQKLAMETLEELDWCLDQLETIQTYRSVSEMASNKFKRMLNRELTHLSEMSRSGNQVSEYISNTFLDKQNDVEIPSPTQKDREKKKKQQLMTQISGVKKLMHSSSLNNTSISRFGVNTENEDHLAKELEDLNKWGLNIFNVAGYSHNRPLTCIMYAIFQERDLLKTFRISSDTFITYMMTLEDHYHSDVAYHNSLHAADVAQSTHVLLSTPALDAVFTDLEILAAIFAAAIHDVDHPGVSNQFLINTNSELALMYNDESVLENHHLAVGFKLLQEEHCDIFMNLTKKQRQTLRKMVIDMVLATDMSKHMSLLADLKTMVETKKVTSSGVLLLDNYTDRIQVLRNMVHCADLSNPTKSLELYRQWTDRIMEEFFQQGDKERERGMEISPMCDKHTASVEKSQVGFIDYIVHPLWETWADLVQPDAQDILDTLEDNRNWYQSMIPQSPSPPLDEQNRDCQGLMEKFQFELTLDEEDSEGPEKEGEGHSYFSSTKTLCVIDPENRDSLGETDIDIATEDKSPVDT
# experiment: Human Phosphodiesterase B2 Radiometric Assay (yttrium silicate SPA beads, [3H]cyclic AMP)
# Format: biochemical
# cond: recombinant human PDE4B2, radiometric SPA assay, 8 nM [3H]cyclic AMP; read-out: PDE4B2 pIC50 (converted)
For each record, write down the corresponding IC50.
Give bare numbers, in nM.

Solved entries (count: 2):
## Input Look up IC50 for this molecule: `Cc1nc(C(=O)N[C@H]2CC[C@@H](n3c(=O)c4cc(F)cnc4n(-c4cccc(-c5ccc(CN6CCCNCC6)cc5)c4)c3=O)CC2)cs1`
## Output 0.02

## Input Note, next up: `O=c1c2cc(F)cnc2n(-c2cccc(-c3ccc(O)cc3CN3CCCCC3)c2)c(=O)n1[C@H]1CC[C@@H](NCc2cn3cc(F)ccc3n2)CC1`
## Output 0.126

Turning now to a further molecule:
## Input Give the measured IC50 of `O=C(Nc1ccccc1)c1cccc(-n2c(=O)n([C@H]3CC[C@@H](NC(=O)c4cn5ccccc5n4)CC3)c(=O)c3cc(F)cnc32)c1` .
## Output 0.0398
